experimental.target: MtYcaO (YcaO from Methanothermobacter sp. CaT2), MBP-His tag cut in the assay mixture (Methanothermobacter sp. CaT2)
assay.notes: fluorescence polarisation
pEC50: −log10 of the molar value.
The reader will find reported pEC50 values listed item by item below.
property.label: pEC50

binder="MtTfuA-K205M (enzyme) MHGKKIIIFTGPSLSHTEASSILEAEYRPPVRRGDIQEAMKENPDIIGIIDGVFHQSPAVGHREIIDAIRRGVKVVGGASMGALRASELSDLGMVGVGRIFRSYLEGEIESDDDVAVAFNPETLEPLSDSLVSIEFNLKRALRRGVIREDDFRKLMNTARNLFYPLRNYRRILHESGIPDDVKESLRSFLESEGRDLMREDALEVIRHIKRLAYTE" relation_symbol== measurement=5.96
binder="MtTfuA-E67A (enzyme) MHGKKIIIFTGPSLSHTEASSILEAEYRPPVRRGDIQEAMKENPDIIGIIDGVFHQSPAVGHRAIIDAIRRGVKVVGGASMGALRASELSDLGMVGVGRIFRSYLEGEIESDDDVAVAFNPETLEPLSDSLVSIEFNLKRALRRGVIREDDFRKLMNTARNLFYPLRNYRRILHESGIPDDVKESLRSFLESEGRDLKREDALEVIRHIKRLAYTE" relation_symbol== measurement=5.31
binder="MtTfuA-R206A (enzyme) MHGKKIIIFTGPSLSHTEASSILEAEYRPPVRRGDIQEAMKENPDIIGIIDGVFHQSPAVGHREIIDAIRRGVKVVGGASMGALRASELSDLGMVGVGRIFRSYLEGEIESDDDVAVAFNPETLEPLSDSLVSIEFNLKRALRRGVIREDDFRKLMNTARNLFYPLRNYRRILHESGIPDDVKESLRSFLESEGRDLKAEDALEVIRHIKRLAYTE" relation_symbol== measurement=5.51
binder="MtTfuA-R88A (enzyme) MHGKKIIIFTGPSLSHTEASSILEAEYRPPVRRGDIQEAMKENPDIIGIIDGVFHQSPAVGHREIIDAIRRGVKVVGGASMGALAASELSDLGMVGVGRIFRSYLEGEIESDDDVAVAFNPETLEPLSDSLVSIEFNLKRALRRGVIREDDFRKLMNTARNLFYPLRNYRRILHESGIPDDVKESLRSFLESEGRDLKREDALEVIRHIKRLAYTE" relation_symbol=< measurement=4.52
binder="MtTfuA-D115A (enzyme) MHGKKIIIFTGPSLSHTEASSILEAEYRPPVRRGDIQEAMKENPDIIGIIDGVFHQSPAVGHREIIDAIRRGVKVVGGASMGALRASELSDLGMVGVGRIFRSYLEGEIESADDVAVAFNPETLEPLSDSLVSIEFNLKRALRRGVIREDDFRKLMNTARNLFYPLRNYRRILHESGIPDDVKESLRSFLESEGRDLKREDALEVIRHIKRLAYTE" relation_symbol=< measurement=4.52
